system-name: PRMT5/MEP50 (Homo sapiens (Human), UniProt O14744)
Sequence (O14744 other isoform, or with tags, fused parts or gaps): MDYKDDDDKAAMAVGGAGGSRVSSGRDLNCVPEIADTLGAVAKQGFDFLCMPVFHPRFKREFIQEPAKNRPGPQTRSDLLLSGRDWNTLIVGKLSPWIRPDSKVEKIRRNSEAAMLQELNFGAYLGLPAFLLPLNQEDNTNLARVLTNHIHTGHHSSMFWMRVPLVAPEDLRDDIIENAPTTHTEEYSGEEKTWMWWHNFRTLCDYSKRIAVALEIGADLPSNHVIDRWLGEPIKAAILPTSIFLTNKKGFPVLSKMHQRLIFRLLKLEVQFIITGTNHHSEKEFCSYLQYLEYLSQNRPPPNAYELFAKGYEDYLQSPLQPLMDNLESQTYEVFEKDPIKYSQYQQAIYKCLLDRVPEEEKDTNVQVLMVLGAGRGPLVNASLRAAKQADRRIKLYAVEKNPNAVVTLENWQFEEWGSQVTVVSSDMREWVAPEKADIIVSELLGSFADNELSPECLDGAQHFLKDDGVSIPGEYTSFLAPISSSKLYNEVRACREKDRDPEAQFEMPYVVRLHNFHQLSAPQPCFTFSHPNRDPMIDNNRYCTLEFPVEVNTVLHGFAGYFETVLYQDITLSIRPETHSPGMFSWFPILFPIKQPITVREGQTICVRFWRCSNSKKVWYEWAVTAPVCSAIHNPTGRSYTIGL
Sequence (Q9BQA1 other isoform, or with tags, fused parts or gaps partner): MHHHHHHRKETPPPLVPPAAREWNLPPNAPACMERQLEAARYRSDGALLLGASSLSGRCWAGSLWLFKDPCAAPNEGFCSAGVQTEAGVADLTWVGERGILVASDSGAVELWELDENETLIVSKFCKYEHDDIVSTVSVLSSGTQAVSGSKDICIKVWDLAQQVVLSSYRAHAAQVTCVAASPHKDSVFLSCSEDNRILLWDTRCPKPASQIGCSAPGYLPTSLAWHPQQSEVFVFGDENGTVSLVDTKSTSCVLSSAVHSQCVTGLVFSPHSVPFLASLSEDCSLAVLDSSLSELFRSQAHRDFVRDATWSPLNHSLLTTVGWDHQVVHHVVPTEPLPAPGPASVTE
assay-name: PRMT5 Biochemical Assay (PRMT5/MEP50 enzyme assay on peptide substrate, 3H-SAM Flashplate)
Excerpt: S-adenosylmethionine (SAM), S-adenosylhomocysteine (SAH), bicine, KCl, Tween20, dimethylsulfoxide (DMSO), bovine skin gelatin (BSG), and Tris(2-carboxyethyl)phosphine hydrochloride solution (TCEP) were purchased from Sigma-Aldrich at the highest level of purity possible. ^3H-SAM was purchase from American Radiolabeled Chemicals with a specific activity of 80 Ci/mmol. 384-well streptavidin Flashplates were purchased from PerkinElmer. […]
value-type: IC50

These solved cases illustrate the format of a correct answer.
OC(COc1cccc(-c2ccc3ncn(C4COC4)c3c2)c1)CN1CCc2ccccc2C1 (stereo not shown) [Compound 269]; < 100 nM
COc1ccc(Cn2ccc(-c3ccc(OC[C@H](O)CN4CCc5ccccc5C4)cc3)n2)cc1 [Compound 41]; 1000 to 10000 nM
Cc1ncc2ccc(-c3cccc(OCC(O)CN4CCc5ccccc5C4)c3)cn12 (stereo not shown) [Compound 266]; < 100 nM
CN1CCN(C(=O)Cn2ccc3cnc(-c4ccnc(NCC(O)CN5CCc6ccccc6C5)c4)nc32)CC1 (stereo not shown) [Compound 247]; < 100 nM
Cn1ccc2ccc(-c3cccc(OCC(O)CN4CCc5ccccc5C4)c3)nc21 (stereo not shown) [Compound 176]; < 100 nM

# IC50 of O[C@@H](COc1cccc(CNC2CCCC2)c1)CN1CCc2ccccc2C1 [Compound 23] = 1000 to 10000 nM

====

system-name: PRMT5/MEP50 (Homo sapiens (Human), UniProt O14744)
assay-name: PRMT5 Biochemical Assay (PRMT5/MEP50 enzyme assay on peptide substrate, 3H-SAM Flashplate)
Measured IC50 accompanies every entry in the list below.

OC(COc1cccc(-c2ccc3ncsc3c2)c1)CN1CCc2ccccc2C1 (stereo not shown); 101 to 1000 nM

// field: IC50; key: OC(COc1cccc(-c2ccc3ncn(Cc4ccccc4)c3c2)c1)CN1CCc2ccccc2C1 (stereo not shown) ; value = < 100 nM

Input CN1CCC(n2cnc3ccc(-c4ccnc(NCC(O)CN5CCc6ccccc6C5)c4)cc32)C1 (stereo not shown) . Output IC50: < 100 nM

Quick note, IC50 for O=C(Nc1cccc(OCC(O)CN2CCc3ccccc3C2)c1)c1cccnc1 (stereo not shown) landed at 1000 to 10000 nM
